System: SN12C
Assay Notes: NCI tumour cell line growth inhibition, 48 h
Active and inactive are the calls of the source. No stated cut-off is given here; in the data, active = GI50 up to about 1.1 µM and inactive = higher. Peptide text beside a SMILES is read from it. * marks the point of attachment. Boc = CC(C)(C)OC(=O)*

# Compound, GI50
data = [
    ("Cc1cc2nc(C#N)c(N3CCN(c4ccc([N+](=O)[O-])cc4)CC3)nc2cc1C", "> 92.7 µM (inactive)"),
    ("O=c1[nH]cnc2c1ncn2[C@@H]1C[C@@H]1CO", "> 100 µM (inactive)"),
    ("COc1cccc(C2C(C(=O)Nc3cc(=O)n(C)c(=O)n3C)=C(C)NC(C)=C2C(=O)Nc2cc(=O)n(C)c(=O)n2C)c1O", "> 100 µM (inactive)"),
    ("CCCCCCCCCCCCCCCCCCNC(=S)NC=C1C(=O)c2ccccc2C1=O", "16 µM (inactive)"),
    ("CN(C)/N=N/c1ccc(S(N)(=O)=O)cc1", "> 100 µM (inactive)"),
    ("Cc1cc2c(c(C(=O)NCCC(=O)N[C@@H](C)C(=O)OCc3ccccc3)c1)Oc1c(cc(C)cc1C(=O)NCCC(=O)N[C@@H](C)C(=O)OCc1ccccc1)S2", "> 100 µM (inactive)"),
    ("O=C(COC(=O)c1cccc2c(=O)c3ccccc3[nH]c12)Nc1ccc(Cl)cc1", "> 100 µM (inactive)"),
    ("CC(C)(C)SC1=CCC[C@@H](P(=O)(c2ccccc2)c2ccccc2)[C@@H]2CCC[C@@H]12", "15.7 µM (inactive)"),
    ("COc1cccc(/C=C/c2cnc3ccccc3n2)c1OC", "39.5 µM (inactive)"),
    ("CC(C)OC(=O)c1ccc(NCc2cc(O)ccc2O)cc1", "1.71 µM (inactive)"),
    ("COC(=O)C(Cc1ccccc1)NC(=O)C(CS)NC(=O)OC(C)(C)C (stereo not drawn) (Boc-Cys-Phe-OMe; configuration not given here)", "> 100 µM (inactive)"),
]

---

Test system: LXFL 529
Assay Notes: NCI tumour cell line growth inhibition, 48 h
Activity calls are given as the source filed them. Cut-off read from the data, not from the text of the source: active = GI50 up to about 1.1 µM and inactive = higher.

# Compound, GI50
measured = [
    ("COc1ccc(Nc2nc3c(N)cc(C(F)(F)F)cc3nc2-c2ccccc2)cc1", "78.2 µM (inactive)"),
    ("COC1(C)C(=O)N2C1N(C(=O)OC(C)(C)C)CC2(C)C (stereo unspecified)", "> 100 µM (inactive)"),
    ("Cc1ccc(S(=O)(=O)NC2(C=O)CCC(C(C)(C)C)CC2)cc1 (stereo unspecified)", "> 100 µM (inactive)"),
    ("CN(C)c1ccc(-c2cc(O)c3cc4c(cc3n2)OCO4)cc1", "> 100 µM (inactive)"),
    ("COc1ccc(C(=O)C/C(=N/NC(N)=S)C(=O)Nc2ccccc2)cc1", "97.7 µM (inactive)"),
    ("CC(/C(=N/NC(=O)C(N)=O)c1c(Cl)ccc(Cl)c1O)C1(O)C(=O)Nc2ccccc21 (stereo unspecified)", "32.9 µM (inactive)"),
    ("COc1cccc(C2C(C(=O)Nc3cc(=O)n(C)c(=O)n3C)=C(C)NC(C)=C2C(=O)Nc2cc(=O)n(C)c(=O)n2C)c1O", "> 100 µM (inactive)"),
    ("N#CC(C#N)=C1SCC(=O)CS1", "> 100 µM (inactive)"),
    ("C=CCc1cc(-c2cc(CC=C)c(O)c(CNC)c2)cc(CNC)c1O", "15.2 µM (inactive)"),
    ("COc1cc(OC(=O)c2ccccc2)cc2c1C(=O)C=CC2=O", "12.7 µM (inactive)"),
    ("Cc1ccc(SSCCCCCS(=O)O)cc1", "14.6 µM (inactive)"),
    ("O=C(CC1Sc2ccccc2NC1=O)Nc1ccccc1[N+](=O)[O-] (stereo unspecified)", "> 100 µM (inactive)"),
    ("O=C(O)/C(Cl)=C(\\Cl)Nc1cccc(C(F)(F)F)c1", "> 100 µM (inactive)"),
    ("O=[N+]([O-])c1ccc(C2CC(c3ccccc3Cl)=Nc3ccccc3[S+]2[O-])cc1 (stereo unspecified)", "1.79 µM (inactive)"),
    ("C[C@]12CCNC(=O)C=C1CC[C@@H]1C2CC[C@@]2(C)C1CC[C@@H]2OC(=O)COc1ccc(N(CCCl)CCCl)cc1 (stereo partly specified)", "7.57 µM (inactive)"),
    ("CCN(CC)Cc1cc(Nc2c3ccccc3nc3c2[nH]c2ccccc23)ccc1O", "1.39 µM (inactive)"),
    ("N#CC1CC2(C(=O)C1=O)c1ccccc1-c1ccccc12 (stereo unspecified)", "> 100 µM (inactive)"),
    ("CC1(C)OCC(CO)(Nc2nc(N3CC3)nc(N3CC3)n2)CO1", "24.5 µM (inactive)"),
    ("Cc1cc2c(cc1C)NC(=O)C(NC(=O)/C=C/c1ccccc1)C=N2 (stereo unspecified)", "27.9 µM (inactive)"),
    ("Cc1cc2c(C(C)C)c(O)c(O)c(/C=N\\CCO)c2c(O)c1-c1c(C)cc2c(C(C)C)c(O)c(O)c(/C=N/CCO)c2c1O", "1.64 µM (inactive)"),
    ("C/C(=N/Nc1ccc([N+](=O)[O-])cc1[N+](=O)[O-])C(CC(C(=O)Nc1ccccc1C)/C(C)=N\\Nc1ccc([N+](=O)[O-])cc1[N+](=O)[O-])C(=O)Nc1ccccc1C (stereo unspecified)", "14.3 µM (inactive)"),
]
